Target: Dual specificity protein phosphatase 6 (Homo sapiens)
Assay: Primary imaging screen for DUSP6 inhibitors that restore phospho-Erk in transfected HeLa cells, chemical complementation (AID 609);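 also: phospho-Erk level distribution per well compared with pooled transfected vehicle control wells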
Conditions: HeLa MKP-3 transfected, phospho-Erk imaging KS statistic; at 10 µM; hits give high values; cells stimulated with TPA for 15 min

# COMPOUND, inhibition [%]
data = [
    ("CCC1=Nc2ccccc2NC2=C1C(=O)CCC2", 3.66),
    ("COCCN(Cc1ccccc1)P(=O)(O)c1ccccc1OCC(=O)O", 15.1),
    ("O=C(Oc1ccccc1)c1c(Cl)cccc1P(=O)(O)O", -0.159),
    ("COc1ccc(C(=O)N2CCCC(c3ccccc3)C2)cc1 (configuration not stated)", -7.79),
    ("CCCOc1cccc(CN2CCCCC2c2cccnc2)c1 (configuration not stated)", 5.57),
    ("CCCC1O[C@@H]2C[C@H]3[C@@H]4CCC5=CC(=O)C=C[C@]5(C)[C@H]4[C@@H](O)C[C@]3(C)[C@]2(C(=O)CO)O1 (some centres not stated)", 13.3),
    ("CN(C)CCC(c1ccc(Br)cc1)c1ccccn1 (configuration not stated)", -6.41),
    ("CCOC(=O)c1ccc(NCC(O)COc2ccccc2)cc1 (configuration not stated)", 3.66),
    ("CC(COc1ccccc1)N(CCCl)Cc1ccccc1 (configuration not stated)", 3.59),
    ("CC(=O)Oc1oc(-c2ccccc2)nc1/C=N/c1ccccn1", 7.48),
    ("CC[C@H]1CN2CCc3cc(OC)c(OC)cc3[C@@H]2C[C@@H]1C[C@H]1NCCc2cc(OC)c(OC)cc21", 11.3),
    ("CN1[C@@H]2CC(OC(=O)[C@H](CO)c3ccccc3)C[C@H]1[C@@H]1O[C@@H]12 (some centres not stated)", 15.3),
    ("COc1cccc2c1C(=O)c1c(O)c3c(c(O)c1C2=O)C[C@@](O)(C(C)=O)C[C@@H]3O[C@H]1C[C@H](N)[C@H](O)[C@H](C)O1", 102),
    ("O=c1/c(=C/c2ccccn2)sc2n1CN(c1ccccc1)CN=2", 34.2),
    ("C[C@H]1C[C@H]2[C@@H]3CCC4=CC(=O)C=C[C@]4(C)[C@@]3(Cl)[C@@H](O)C[C@]2(C)[C@@]1(O)C(=O)CO", -4.44),
    ("CCC(=O)Oc1oc(-c2ccccc2)nc1C=Nc1ccccc1OC", 9.39),
    ("Cc1c(C(=O)O)sc(=S)n1-c1ccccc1", 20.8),
    ("C[N+](C)(C)CCCCCCCCCC[N+](C)(C)C", 7.39),
    ("Cc1cccc(CN2CCN(C(c3ccccc3)c3ccc(Cl)cc3)CC2)c1 (configuration not stated)", 1.48),
    ("COc1cccc(C(=O)OCCN(C)C(C)(C)C)c1", 17),
    ("CN(C)C(=O)Oc1ccc[n+](C)c1", 13.3),
    ("CCc1cccc2c3c([nH]c12)C(CC)(CC(=O)O)OCC3 (configuration not stated)", -0.493),
]
